glycan array binding signal (z-score) for assorted binders
- measuredOn: Fuc(a1-2)Gal6S(b1-4)GlcNAc
- measurementProtocol: glycan array binding signal (z-score within array); higher = stronger binding
- runConditions: glycan notation: IUPAC condensed, linker removed
Many of the other results were omitted from the sample, so the strongest signals are more common in it than they were.
Number, no unit, nothing else.

Reference set (2 entries):
Mincle (Homo sapiens), Q9ULY5 (protein) MNSSKSSETQCTERGCFSSQMFLWTVAGIPILFLSACFITRCVVTFRIFQTCDEKKFQLPENFTELSCYNYGSGSVKNCCPLNWEYFQSSCYFFSTDTISWALSLKNCSAMGAHLVVINSQEEQEFLSYKKPKMREFFIGLSDQVVEGQWQWVDGTPLTKSLSFWDVGEPNNIATLEDCATMRDSSNPRQNWNDVTCFLNYFRICEMVGINPLNKGKSL :: -0.106
SCA (Schizophyllum commune) (protein) MGIDQGVYLITNAGSGTAATLKDGYVKGWERIKGKEQLNQLWFVKSVKTSASDPGYAAFNLATNKVLDLEKGLADRGTPILGWDYHEGDNQHWVIKKQADGKYYKIQSVKTQTFVDLNNGGKDNGTKIQGWVGSWDETNSHQRWVFNQFSATGSRIKSILDTHPKIHGKVIVEWPDRIYFTPDQYIFEAIWAKTGLADIKPRDPLFQSEAYEKVFKGWVVSRAQEIIKVDGFDILVGSLSLVEKSTQKIKVLDVSVRTSDDKSPDLSQIVFFDPESGRTLVDIPEGYEVNSVII :: -0.161

Next, consider the following binder.
Input: Requested field: glycan array binding signal (z-score). Item: NcCVNHO (Neurospora crassa), Q7S6U4 (protein) MSFHVTAEDARIEVRDNRTILFARLRREDGEWNDASYELDQIIGNNDGHFQWGGQNFTETAEDIRFHPKEGAAEQPILRARLRDCNGEFHDRDVNLTEIVENVNGEFQAKF
Output: -0.185
